Molecular target: T1, ZNRF1^CTD (C-terminal domain of ZNRF1, residues 139–227) (UniProt Q8ND25 139-227)
T1 construct: ZNRF1, RING E3 ubiquitin ligase, residues 139-227 of the full-length protein (ZnF and RING domains); also called ZNRF1 C-terminal domain; ZRNF1^CTD; source: E. coli Rossetta2 (DE3), purified (HisTrap, SEC)
T1 sequence (looked up): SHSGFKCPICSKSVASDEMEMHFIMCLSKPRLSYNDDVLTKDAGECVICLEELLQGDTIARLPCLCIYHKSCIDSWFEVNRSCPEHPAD
Assay: ITC; ZNRF1 construct (10–30 µM) in the cell, E2 in the syringe; 25°C; 20 mM sodium phosphate pH 8.0, 150 mM NaCl; single site model
Conditions: both partners purified
PARAMETER: dH (kcal/mol)
Report only the number, with the unit kcal/mol understood.

The recorded dH for entry Ube2N^R14D (enzyme, UniProt P61088 1-152, looked up, Ube2N, ubiquitin-conjugating enzyme E2 N, with R14D; source: E. coli Rossetta2 (DE3), purified (ion exchange, SEC)) MAGLPRRIIKETQDLLAEPVPGIKAEPDESNARYFHVVIAGPQDSPFEGGTFKLELFLPEEYPMAAPKVRFMTKIYHPNVDKLGRICLDILKDKWSPALQIRTVLLSIQALLSAPNPDDPLANDVAEQWKTNEAQAIETARAWTRLYAMNNI equals -8.38

Noted for Ube2N^S96R (enzyme, UniProt P61088 1-152, looked up, Ube2N, ubiquitin-conjugating enzyme E2 N, with S96R; source: E. coli Rossetta2 (DE3), purified (ion exchange, SEC)) MAGLPRRIIKETQRLLAEPVPGIKAEPDESNARYFHVVIAGPQDSPFEGGTFKLELFLPEEYPMAAPKVRFMTKIYHPNVDKLGRICLDILKDKWRPALQIRTVLLSIQALLSAPNPDDPLANDVAEQWKTNEAQAIETARAWTRLYAMNNI : its dH reads -5.64

// Ube2N (enzyme, UniProt P61088 1-152, looked up, Ube2N, ubiquitin-conjugating enzyme E2 N; also called wtUbe2N; source: E. coli Rossetta2 (DE3), purified (ion exchange, SEC)) MAGLPRRIIKETQRLLAEPVPGIKAEPDESNARYFHVVIAGPQDSPFEGGTFKLELFLPEEYPMAAPKVRFMTKIYHPNVDKLGRICLDILKDKWSPALQIRTVLLSIQALLSAPNPDDPLANDVAEQWKTNEAQAIETARAWTRLYAMNNI : dH value = -10.5
